tested.system: T1, factor XIIIa (human, UniProt P00488 39-732)
T1 sequence (looked up): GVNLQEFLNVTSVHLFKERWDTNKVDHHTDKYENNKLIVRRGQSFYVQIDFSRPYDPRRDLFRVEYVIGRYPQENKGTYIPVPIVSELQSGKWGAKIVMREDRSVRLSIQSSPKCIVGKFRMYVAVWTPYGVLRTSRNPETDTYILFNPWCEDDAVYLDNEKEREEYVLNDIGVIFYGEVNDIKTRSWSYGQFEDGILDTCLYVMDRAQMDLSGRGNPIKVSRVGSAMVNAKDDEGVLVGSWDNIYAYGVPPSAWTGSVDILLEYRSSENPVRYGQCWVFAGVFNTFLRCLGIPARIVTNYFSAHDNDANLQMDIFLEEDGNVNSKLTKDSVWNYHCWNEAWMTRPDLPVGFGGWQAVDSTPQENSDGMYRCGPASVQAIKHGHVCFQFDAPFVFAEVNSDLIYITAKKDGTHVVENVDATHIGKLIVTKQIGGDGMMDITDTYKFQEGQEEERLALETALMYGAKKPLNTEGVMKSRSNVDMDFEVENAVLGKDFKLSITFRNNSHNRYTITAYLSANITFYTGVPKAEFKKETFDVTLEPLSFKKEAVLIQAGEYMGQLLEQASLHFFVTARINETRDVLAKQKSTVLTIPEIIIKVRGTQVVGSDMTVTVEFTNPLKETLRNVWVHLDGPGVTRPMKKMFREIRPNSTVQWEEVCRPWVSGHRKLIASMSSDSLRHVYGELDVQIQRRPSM
procedure.text: cell-based or functional assay
Quick rule for you: Relative inhibitory effect (%) at 7.27 µM, recombinant tridegin = 100% at 10% or higher means True, lower means False.

Ac-AFIPQCRPRSELIKPMDDIY-NH2 [20 amino acid-long tridegin peptide SEQ ID NO.18] : True
Ac-NPRCWCGADLECAQDQYCAF-NH2 (cysteine pairing not given here) [20 amino acid-long tridegin peptide SEQ ID NO.9] : False
Ac-IPNPRCWCGADLECAQDQYC-NH2 (cysteine pairing not given here) [20 amino acid-long tridegin peptide SEQ ID NO.8] : True
Ac-PMDDIYQRPVEFPNLPLKPR-NH2 [20 amino acid-long tridegin peptide SEQ ID NO.25] : True

stdin: Does the reported Relative inhibitory effect (%) at 7.27 µM, recombinant tridegin = 100% for Ac-GADLECAQDQYCAFIPQCRP-NH2 (cysteine pairing not given here) [20 amino acid-long tridegin peptide SEQ ID NO.12] fall at or above the 10% mark?
stdout: False

stdin: Assess whether reported Relative inhibitory effect (%) at 7.27 µM, recombinant tridegin = 100% for Ac-RPRSELIKPMDDIYQRPVEF-NH2 [20 amino acid-long tridegin peptide SEQ ID NO.21] sits at 10% or higher.
stdout: True
